Ref: PubChem BioAssay AID504332

target_system: Histone-lysine N-methyltransferase EHMT2 (Homo sapiens)
test_name: qHTS Assay for Inhibitors of Histone Lysine Methyltransferase G9a; also: nearly all actives have a fitted effect of over 75% in size
condition_set: G9a H3K9 monomethylation, AlphaScreen, 2 h; series mostly up to 59 µM
Among all 350,000 compounds or so, about 31,000 (8.9%) were called active. Roughly 15% stayed inconclusive and do not appear here. Calls follow the shape of the dose curve; as a rule, active = well fitted inhibition curve with a large enough effect; inconclusive = small, poorly fitted or top-dose-only effect; inactive = no such curve, though single readings can be large or run the other way. The entries come from a sample that favours actives as a whole.
Possible outcomes: t = active, f = inactive

>>> assigned_category("O=C(CSc1nnc(-c2ccco2)n1Cc1ccccc1)NC(=O)NCc1ccco1")
"f"
>>> assigned_category("Cc1ccccc1C(=O)Nc1nnc(S(=O)(=O)N(C)c2ccc(Cl)cc2)s1")
"f"
>>> assigned_category("Cc1cccc(N2Cc3ccccc3C2=NC(=O)c2ccc(Cl)nc2)c1")
"t"
>>> assigned_category("Cc1c2cnn(-c3ccccc3)c(=O)c2c(C)n1CCCC(=O)N1CCN(C)CC1")
"t"
>>> assigned_category("CN1CCN(NC(=O)Nc2ccc(Br)cc2)CC1")
"f"
>>> assigned_category("O=C(N[C@@H](Cc1ccccc1)C(=O)OCc1ccccc1)c1nc[nH]c1C(=O)N[C@@H](Cc1ccccc1)C(=O)OCc1ccccc1")
"f"
>>> assigned_category("Cc1ccc(S(=O)(=O)N2CCC(N3CCCCCC3)CC2)cc1")
"t"
>>> assigned_category("Cn1cc(CCC(=O)NCc2ccc3c(c2)OCO3)c2ccccc21")
"t"
>>> assigned_category("Cc1ccc(/C([O-])=C(/C(=S)NCc2ccco2)[n+]2ccccc2)cc1[N+](=O)[O-]")
"t"
>>> assigned_category("Cn1c(CC(=O)Nc2ccc(F)cc2)nnc1SCC(=O)NC1CCCCC1")
"f"
>>> assigned_category("Cn1c(C(=O)N2CCCC(C(=O)NCc3ccccc3)C2)cc2sccc21 (stereo not drawn)")
"f"
>>> assigned_category("Cc1c(C(=O)Nc2ccccn2)oc2ccc(Br)cc12")
"f"
>>> assigned_category("O=C(/C=C/c1ccccc1)c1ccccc1O")
"t"
>>> assigned_category("O=C(CSc1nnc(-c2ccco2)n1CC1CCCO1)c1ccccc1 (stereo not drawn)")
"t"
>>> assigned_category("CC(C)(C)NC(=O)NCc1ccco1")
"f"
>>> assigned_category("O=C(c1ccc2c(c1)N(Cc1ccccc1)C(=O)c1ccccc1S2(=O)=O)N1CCC(Cc2ccccc2)CC1")
"f"
>>> assigned_category("CC(=O)N1CCCc2cc(S(=O)(=O)N3CCC(C(=O)NCc4ccc(C)cc4)CC3)ccc21")
"f"
>>> assigned_category("CCc1ccccc1NC(=O)CSc1nc(C)c(C(=O)Nc2ccccc2)c(-c2ccc(Cl)cc2)c1C#N")
"f"
>>> assigned_category("COc1ccccc1N1CCN(C(=O)C2Cc3ccccc3CN2C(=O)c2ccco2)CC1 (stereo not drawn)")
"f"
>>> assigned_category("CCc1nc(Nc2ccc3nccnc3c2)c2oc3ccccc3c2n1")
"f"
>>> assigned_category("O=C(CN1C(=O)S/C(=C\\c2ccccc2Cl)C1=O)NC1C=CS(=O)(=O)C1 (stereo not drawn)")
"f"
>>> assigned_category("O=C(Nc1ccccc1Br)c1cc(CN2CCCC2)on1")
"f"
>>> assigned_category("Cc1cccc(N(C(=O)Cc2cccs2)C(C(=O)NCc2ccco2)c2ccncc2)c1 (stereo not drawn)")
"f"
>>> assigned_category("Cc1ccnc(SCC(N)=O)n1")
"f"
>>> assigned_category("COc1cccc(N2CC(NS(=O)(=O)c3cccs3)CC2=O)c1 (stereo not drawn)")
"f"
>>> assigned_category("O=C(/C=C/c1ccccc1)N/C(=C/c1ccccc1)C(=O)Nc1ccccc1O")
"f"
>>> assigned_category("Cc1ccc(NC(=O)C(=O)NCc2ccco2)c(C)c1")
"f"
>>> assigned_category("O=C(CSc1nnc(-c2ccco2)o1)NCC(=O)c1ccccc1")
"f"
>>> assigned_category("Cc1ccccc1CNC(=O)Cn1c(C)c2cnn(-c3ccccc3)c(=O)c2c1C")
"f"
>>> assigned_category("Cc1ccc2nc(SC(C)C(=O)NCc3ccco3)[nH]c2c1 (stereo not drawn)")
"t"
>>> assigned_category("CN(C)S(=O)(=O)c1cc(NC(=O)CN2C(=O)NC3(CCCc4ccccc43)C2=O)ccc1Cl (stereo not drawn)")
"f"
>>> assigned_category("O=C(NCc1ccco1)c1ccc([N+](=O)[O-])cc1Cl")
"f"
>>> assigned_category("COc1ccc(S(=O)(=O)N2CCCC(C(=O)N3CCN(C)CC3)C2)cc1C (stereo not drawn)")
"f"
>>> assigned_category("CC(=O)NC(CC(=O)Nc1cccc(S(=O)(=O)N2CCCC2)c1)c1ccccc1 (stereo not drawn)")
"f"
>>> assigned_category("COc1ccc(CNC(=O)COC(=O)c2c(C)nn(-c3ccccc3)c2C)cc1OC")
"f"
>>> assigned_category("c1ccc(CNc2ncnc3[nH]ncc23)cc1")
"f"
>>> assigned_category("O=C(COc1ccc(Cl)cc1)NCc1nnc(SCC(=O)NCC2CCCO2)o1 (stereo not drawn)")
"f"
>>> assigned_category("CCOc1c(OC)cccc1C(=O)NCC1(c2ccccc2)CCCC1")
"f"
>>> assigned_category("COc1ccc(N(Cc2cc3ccc(C)cc3[nH]c2=O)S(=O)(=O)c2ccccc2)cc1")
"f"
>>> assigned_category("Cc1ccc(C)c(OCC(=O)Nc2sc3c(c2C#N)CCCC3)c1C")
"f"
>>> assigned_category("CCOC(=O)c1cc2c(=O)n3ccccc3nc2n(CCCOC)c1=NC(=O)C(C)Oc1ccccc1 (stereo not drawn)")
"f"
>>> assigned_category("CCOc1ccccc1CNC(=O)c1cnc2c(-c3ccc(OCC)c(OCC)c3)c(C)nn2c1C")
"f"
>>> assigned_category("CCN(CC)CCCNC(=O)c1c(O)c2cc(F)cc3c2n(c1=O)C(C)CC3 (stereo not drawn)")
"f"
